Recorded measurements of aptazyme ON/OFF ratio, one per entry
B1: Pistol ribozyme (parent)
chain: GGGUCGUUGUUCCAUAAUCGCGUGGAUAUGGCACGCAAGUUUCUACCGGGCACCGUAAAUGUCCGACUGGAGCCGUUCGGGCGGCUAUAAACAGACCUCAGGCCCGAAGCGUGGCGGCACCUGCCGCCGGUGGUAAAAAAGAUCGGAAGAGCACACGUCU

variants of: B1; assay: aptazyme ON/OFF ratio, guanine; higher = stronger switching; co-transcriptional cleavage with and without guanine
metric_name: aptazyme ON/OFF ratio

sequence_variant	metric_name	result_value
U7G U8G G9A U10A C12G C13G	aptazyme ON/OFF ratio	1.18
U7A U8A G9C U10C C12U C13U	aptazyme ON/OFF ratio	1.07
G9A C12U	aptazyme ON/OFF ratio	1.78
U7A G9C U10C U11A C12G C13G	aptazyme ON/OFF ratio	1.16
U7A U10C U11G C12U C13A	aptazyme ON/OFF ratio	1.27
U7A U8A U10G U11A	aptazyme ON/OFF ratio	1.03
U7A U8C G9U U10A U11G C12A C13U	aptazyme ON/OFF ratio	1.1
G9U U10C U11G C12U C13G	aptazyme ON/OFF ratio	1.34
U8G G9C U10A U11A C12G C13G	aptazyme ON/OFF ratio	1.18
U7A U8A G9C U10G U11C C13U	aptazyme ON/OFF ratio	1.04
U11A C12U C13A	aptazyme ON/OFF ratio	1.36
U7A U8G U11A C12A	aptazyme ON/OFF ratio	1.43
U8A U10A U11C C12G C13A	aptazyme ON/OFF ratio	1.1
U7G G9C C12U C13G	aptazyme ON/OFF ratio	1.18
U8G G9A U10G C12A C13A	aptazyme ON/OFF ratio	1.29
U7G U8C G9A U10A U11A C12U C13A	aptazyme ON/OFF ratio	1.13
U7G U8G U10G U11C C12A	aptazyme ON/OFF ratio	1.17
U8A U10C U11C C13A	aptazyme ON/OFF ratio	1.01
U7G U8C U11C C12U C13U	aptazyme ON/OFF ratio	1.45
U7A G9A U10A C12U C13G	aptazyme ON/OFF ratio	1.11
U7C U8C G9U U10G U11A C12A	aptazyme ON/OFF ratio	1.37
U7A U8C U10A U11C C13G	aptazyme ON/OFF ratio	1.05
U7A U8G U10A U11A C13U	aptazyme ON/OFF ratio	1.1
G9C U10G U11G C12U C13A	aptazyme ON/OFF ratio	1.09
U7G U8C G9A C12U C13A	aptazyme ON/OFF ratio	1.03
U7C G9U U10A U11C C13A	aptazyme ON/OFF ratio	1.11
U8A G9A U10C U11G C13U	aptazyme ON/OFF ratio	1.17
U7G U8G G9U U10A	aptazyme ON/OFF ratio	3.21
U7A U8A G9A U10G U11A C12G C13A	aptazyme ON/OFF ratio	1.08
U8A G9C U11C C13A	aptazyme ON/OFF ratio	1.06
U7A U8C G9U U10A U11G C12U	aptazyme ON/OFF ratio	1.35
U7C U8A G9U U10A U11A C12U	aptazyme ON/OFF ratio	1.14
U8G G9U U10G U11C C12U	aptazyme ON/OFF ratio	1.04
U8C G9C U10C C12G C13A	aptazyme ON/OFF ratio	1.07
U8A G9A U11C C13A	aptazyme ON/OFF ratio	1.04
U7C G9A U10C U11A C12U	aptazyme ON/OFF ratio	1.34
U7C U8G G9A U10C C12A C13G	aptazyme ON/OFF ratio	1.09
U7C U8C G9U U11A C12G	aptazyme ON/OFF ratio	1.18
U7C U8A U10A U11G C13A	aptazyme ON/OFF ratio	1.15
G9A U10A U11G C12A C13G	aptazyme ON/OFF ratio	1.28
U7C U8C G9A U11C C12G C13U	aptazyme ON/OFF ratio	1.23
U7C U8A G9C U10C U11C C12U C13G	aptazyme ON/OFF ratio	1.03
U7A G9U U10A U11C C12A C13U	aptazyme ON/OFF ratio	1.17
U7A G9A U10G U11G C12A C13G	aptazyme ON/OFF ratio	1.29
U7C U8C U10C U11C C12A	aptazyme ON/OFF ratio	1.24
U8A G9U U11G C12G C13G	aptazyme ON/OFF ratio	1.24
G9C U10A U11C C12U C13G	aptazyme ON/OFF ratio	1.12
U7A G9C U11C C12A C13G	aptazyme ON/OFF ratio	1.05
U7A G9U U10A U11G C12G C13U	aptazyme ON/OFF ratio	1.18
U7C U8G G9U U10A U11C C12G	aptazyme ON/OFF ratio	1.2
U7C U10A U11C C12G C13A	aptazyme ON/OFF ratio	1.2
U8G G9C U11G C12U C13U	aptazyme ON/OFF ratio	1.25
U7A G9U U10C U11A C12A C13A	aptazyme ON/OFF ratio	1.2
U7A U8G G9U U10A C12U C13G	aptazyme ON/OFF ratio	1.36
U7C U8G G9A U11G C12G C13G	aptazyme ON/OFF ratio	1.27
U7C U8G G9C U10G U11G C12U C13A	aptazyme ON/OFF ratio	1.06
U7A U8A G9A U11C C12G	aptazyme ON/OFF ratio	1.1
U7C U8G G9U U10A U11A C12G C13U	aptazyme ON/OFF ratio	1.2
U8C G9U U10C U11A C12A C13U	aptazyme ON/OFF ratio	1.11
U7A U8C G9C U10C U11G C12U C13G	aptazyme ON/OFF ratio	1.11
U7G U8G G9A U10G U11C C12U C13U	aptazyme ON/OFF ratio	1.29
U7A U8A G9A U10G C12A C13G	aptazyme ON/OFF ratio	1.12
U7G U8C G9A C13U	aptazyme ON/OFF ratio	1.22
U7C U8C G9C U10C U11A C12U	aptazyme ON/OFF ratio	1.02
U7A G9C U10A C12U	aptazyme ON/OFF ratio	1.14
U7G G9A U11A C12A C13G	aptazyme ON/OFF ratio	1.09
U7G U8A G9C U10C C12G C13G	aptazyme ON/OFF ratio	1.01
U7G U8G G9U U11C C12A C13A	aptazyme ON/OFF ratio	1.23
U7C G9A U10A	aptazyme ON/OFF ratio	1.88
U7A U8G G9A U11A C12G C13G	aptazyme ON/OFF ratio	1.33
U7C U8C G9C U10A C12G C13G	aptazyme ON/OFF ratio	1.17
U7G U8A U10G U11G C12U C13G	aptazyme ON/OFF ratio	1.16

The reported numbers originate from the RNAGym collection of RNA variant scans (doi:10.1021/acssynbio.7b00057).
